target: E. coli MurD (Escherichia coli); experiment: biochemical; details: 0.25 h, Table S1, PKIS screening; read-out: RA [%] at 100 µM MurD
Sequence (P14900 whole entry): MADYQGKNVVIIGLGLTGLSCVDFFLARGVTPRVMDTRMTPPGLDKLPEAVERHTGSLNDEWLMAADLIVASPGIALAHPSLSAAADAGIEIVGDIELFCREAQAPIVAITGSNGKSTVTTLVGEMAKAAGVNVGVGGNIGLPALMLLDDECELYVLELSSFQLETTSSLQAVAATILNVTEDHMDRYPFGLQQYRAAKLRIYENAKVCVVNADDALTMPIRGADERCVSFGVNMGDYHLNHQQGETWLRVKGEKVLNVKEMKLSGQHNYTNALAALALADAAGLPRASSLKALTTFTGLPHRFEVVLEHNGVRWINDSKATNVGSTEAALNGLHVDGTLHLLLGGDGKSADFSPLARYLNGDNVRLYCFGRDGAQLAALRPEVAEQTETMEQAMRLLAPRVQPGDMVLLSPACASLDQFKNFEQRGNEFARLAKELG
In this section we review reported remaining activity at 100 µM values for a set of molecules.
Give just the number in %; leave the unit off.

MOLECULE	STUDY_SYSTEM	RECORDED_MEASUREMENT
Cc1cc(O)cc(C)c1/C=C/c1cncc(C(N)=O)c1 [GW435821X]	E. coli MurD (Escherichia coli)	89
O=C(Nc1n[nH]c2cc(-c3cc(F)ccc3F)ccc12)C1CC1	E. coli MurD (Escherichia coli)	80
c1cc(-c2cnn3nc(N4CCOCC4)ccc23)nc(NC2CC2)n1 [GW708336X]	E. coli MurD (Escherichia coli)	92
O=C1NC(=O)C(c2ccc(Cl)cc2)=C1Nc1ccc(Cl)c(C(=O)O)c1	E. coli MurD (Escherichia coli)	86

Note: attention shifts to another entry.
Prompt: Specify measured remaining activity at 100 µM for NC(=O)c1cc(-c2ccncc2)cc(-c2ccccc2)c1N [GSK625137A] .
Response: 95
